target: GST-Syk Full Protein (human) (Homo sapiens, UniProt P43405); assay: Syk kinase inhibition test (HTRF method); type: biochemical; conditions: HTRF, 100 μM ATP, 30 min room temperature, average; read-out: sykHTRF ave IC50
pIC50: −log10 of the molar value.
Recorded pIC50, one value per entry.

COC1CCN(C(=O)[C@H]2CC[C@H](c3ncc(-c4cccc(Nc5cc(C)ccn5)n4)s3)CC2)CC1 [Compound A-280] | 6.00 to 7.00

Please give measured pIC50 of the following entry: CC(=O)O[C@@H](c1ccccc1)c1ncc(-c2cccc(Nc3cc(C)ccn3)n2)s1 [Compound A-318]
6.00 to 7.00

Please give measured pIC50 of the following entry: COc1ccc(C[C@H](NC(C)=O)c2ncc(-c3cccc(Nc4cc(C)ccn4)n3)s2)cc1OC [Compound A-139]
6.00 to 7.00

Please give measured pIC50 of the following entry: Cc1ccnc(Nc2cccc(-c3cnc([C@H]4CC[C@H](C(=O)N5CCCCC5)CC4)s3)n2)c1 [Compound A-274]
6.00 to 7.00

Please give measured pIC50 of the following entry: Cc1ccnc(Nc2cccc(-c3cnc([C@H]4CC[C@H](C(=O)N5CCC(N)CC5)CC4)s3)n2)c1 [Compound A-290]
> 7.00

Please give measured pIC50 of the following entry: COC(=O)CCNCc1ncc(-c2cccc(Nc3cc(C)ccn3)n2)s1 [Compound A-163]
6.00 to 7.00

Please give measured pIC50 of the following entry: CC(=O)N[C@@H](Cc1ccc(OCCO)cc1)c1ncc(-c2cccc(Nc3cc(C)ccn3)n2)s1 [Compound A-140]
6.00 to 7.00

Please give measured pIC50 of the following entry: Cc1ccnc(Nc2cccc(-c3cnc([C@H]4CC[C@H](C(=O)N5C[C@H](O)C[C@@H](O)C5)CC4)s3)n2)c1 [Compound A-226]
6.00 to 7.00

Please give measured pIC50 of the following entry: Cc1ccnc(Nc2cccc(-c3cnc(C(=O)NC(CO)CO)s3)n2)c1 [Compound A-72]
6.00 to 7.00

====

test system: cultured human mast cells; experiment: Degranulation inhibition test using cultured human mast cells (IgE cross-linking, β-Hexosaminidase release); format: cell-based; conditions: read-out: human degranulation ave. IC50
measured-metric: IC50

Please give measured IC50 of the following entry: Cc1ccnc(Nc2cccc(-c3cnc(CN4CCNC(=O)C4)s3)n2)c1
100 to 1000 nM

====

target: GST-Syk Full Protein (human) (Homo sapiens); assay: Syk kinase inhibition test (HTRF method); format: biochemical; details: HTRF, 100 μM ATP, 30 min room temperature, average; read-out: sykHTRF ave IC50
pIC50: −log10 of the molar value.
Recorded pIC50, one value per entry.

Completed entries (count: 5):
Cc1ccnc(Nc2cccc(-c3cnc(C(=O)NCC(C)(C)CO)s3)n2)c1 | 6.00 to 7.00
Cc1ccnc(Nc2cccc(-c3cnc(CCc4ccc(C(=O)N5C[C@@H](O)[C@@H](O)C5)cc4)s3)n2)c1 | > 7.00
Cc1ccnc(Nc2cccc(-c3cnc(Cc4ccc(C(=O)O)cc4)s3)n2)c1 | 6.00 to 7.00
Cc1ccnc(Nc2cccc(-c3cnc(CCC4CCN(C(=O)C5CCC(O)CC5)CC4)s3)n2)c1 (centres unmarked) | 6.00 to 7.00
Cc1ccnc(Nc2cccc(-c3cnc([C@H](C)N)s3)n2)c1 | 6.00 to 7.00

Name the recorded pIC50 of Cc1ccnc(Nc2cccc(-c3cnc(CNC(=O)CC(=O)O)s3)n2)c1 , assay system GST-Syk Full Protein (human) (Homo sapiens).
6.00 to 7.00

Name the recorded pIC50 of CC(=O)OCC(=O)N[C@@H](C)c1ncc(-c2cccc(Nc3cc(C)ccn3)n2)s1 , assay system GST-Syk Full Protein (human) (Homo sapiens).
6.00 to 7.00
